Property: melting point; scope: individual compounds

{"columns": ["compound", "melting point / °C"],
 "data": [
  ["O=C(O)c1ccc(F)c(F)c1", 123],
  ["O=C(O)c1cccc(Br)c1", 157],
  ["O=C(O)Cc1cccc(F)c1", 46],
  ["C[C@]12CCC(=O)C=C1CC[C@@H]1[C@@H]2CC[C@@]2(C)[C@H]1CC[C@]2(C)O [17a-Methyltestosterone]", 163],
  ["C=Cc1cccc([N+](=O)[O-])c1", -5],
  ["Cc1c(Cl)cccc1Cl", 2],
  ["O=CC1CCCCC1", 35],
  ["O=Cc1ccc(Cl)cc1Cl", 73],
  ["CCCCCCC(=O)O [heptanoic_acid]", -6],
  ["O=C1Cc2ccccc2C(=O)O1 [Homophthalic acid anhydride]", 143],
  ["ClC(c1ccccc1)c1ccccc1 [benzhydryl chloride]", 19],
  ["CCNc1nsc2ccccc12", 78],
  ["COc1ccc(C)cc1", -50],
  ["Nc1ncnc2c1ncn2[C@@H]1O[C@H](CO)[C@@H](O)[C@H]1O [Adenosine]", 234],
  ["COc1ccccc1OC [o-dimethoxybenzene]", 15],
  ["NC(=O)c1cccnc1 [Nicotinamide]", 130],
  ["COc1ccccc1N1CCN(CCCC(=O)c2ccc(F)cc2)CC1", 68],
  ["CN(C)CCOc1ccc(/C(=C(\\CCCl)c2ccccc2)c2ccccc2)cc1", 108],
  ["CCCCCCC [N-heptane]", -91],
  ["Cc1ccc2c(c1)no[n+]2[O-] [5-Methylbenzofurazan oxide]", 96],
  ["OCc1ccc(I)cc1", 73],
  ["Clc1nc(Cl)nc(Cl)n1", 146]
]}

* * *

{"columns": ["molecule", "melting point"],
 "data": [
  ["CCOP(=O)(OCC)OCC [Triethyl phosphate]", "-56 °C"],
  ["Cc1cc(Cl)c(Cl)cc1Cl", "82.4 °C"],
  ["O=C1C=CC(=O)C2CC3=C(CC4=C(C3)CC3C(=O)C=CC(=O)C3C4)CC12 (stereo unspecified)", "338 °C"],
  ["Cc1cc(C)c(CSCc2c(C)cc(C)cc2C)c(C)c1 [1,1'-(sulfanediyldimethanediyl)bis(2,4,6-trimethylbenzene)]", "146 °C"],
  ["COC(=O)c1ccc2[nH]nnc2c1 [methyl 1h-benzotriazole-5-carboxylate]", "174 °C"],
  ["CCOC(=O)O[C@]1(C(=O)OCCl)CC[C@H]2[C@@H]3CCC4=CC(=O)C=C[C@]4(C)[C@H]3[C@@H](O)C[C@@]21C", "222 °C"],
  ["ClC(Cl)(Cl)C(Cl)(Cl)Cl", "192 °C"],
  ["COC(N)=O [methyl carbamate]", "55 °C"],
  ["O=C(O)c1ccccc1[N+](=O)[O-] [o-nitrobenzoic_acid]", "148 °C"],
  ["O=C(O)CI", "81 °C"],
  ["Cc1ncc([N+](=O)[O-])n1CCO [2-(2-Methyl-5-nitro-1H-imidazol-1-yl)ethanol]", "160 °C"],
  ["FC(F)(F)c1ccc(Cl)c(Cl)c1 [3,4-dichlorobenzotrifluoride]", "-12 °C"],
  ["CN(C)c1ccc(C=O)c(Cl)c1", "80 °C"],
  ["O=C(O)c1ccc(Br)s1", "140 °C"],
  ["O=C(O)CCC(=O)c1ccc(-c2ccccc2)cc1", "186 °C"],
  ["c1cc2ccc3cccc4ccc(c1)c2c34 [Pyrene]", "150 °C"],
  ["COc1ccc(B(O)O)c(C(F)(F)F)c1", "170 °C"],
  ["Cc1ccc(N)c(Br)c1", "14 °C"],
  ["Nc1cccc(Br)c1", "17 °C"],
  ["CCC1(CC)C(=O)NC(=O)N(C)C1=O", "150 °C"],
  ["CCCCCCCCOc1ccc(N(NC(=O)OC(C)(C)C)C(=O)OC(C)(C)C)cc1OCCCCCCCC", "56 °C"],
  ["OCC(c1ccccc1)c1ccccc1", "54.5 °C"],
  ["CCCCC(CC)COC(=O)c1ccccc1C(=O)OCC(CC)CCCC (stereo unspecified) [bis-2-ethylhexyl_phthalate]", "-50 °C"],
  ["CCCOC(=O)c1ccc(O)cc1 [propylparaben]", "97 °C"],
  ["O=C1C=C(Cl)C(=O)C=C1Cl", "162 °C"],
  ["Cc1cccc(Cl)c1", "-48 °C"],
  ["Cn1c(C=O)nc2ccccc21", "120 °C"],
  ["CC(=O)OC1CCC2C3CCC4CC(=C(C)C)CCC4(C)C3CCC12C (stereo unspecified) [3-(1-methylethylidene)androstan-17-yl acetate]", "108 °C"],
  ["CCCCCCCC [N-octane]", "-57 °C"],
  ["CCCCCN [1-aminopentane]", "-55 °C"],
  ["Cn1ccnc1S", "146 °C"],
  ["CC(C)c1cccc(C(C)C)c1O", "18 °C"],
  ["Nc1nc2ccc([N+](=O)[O-])cc2s1", "248 °C"],
  ["ClCCCCCCl", "-72 °C"],
  ["O=C1C=CC(=O)C=C1", "114 °C"],
  ["C=C(C)C(=O)OC [methyl_methacrylate]", "-48 °C"],
  ["O=Cc1ccc(O)cc1O [2,4-dihydroxybenzaldehyde]", "136 °C"],
  ["Oc1ccccc1-c1ccccc1 [o-phenylphenol]", "60 °C"],
  ["CCc1ccc(C)nc1N", "47 °C"],
  ["CC(=O)c1ccccc1C(N)=O [o-acetylbenzamide]", "122 °C"],
  ["OB(O)c1ccc(C(F)(F)F)cc1Cl", "111 °C"]
]}

* * *

{"columns": ["molecule", "melting point, °C"],
 "data": [
  ["O=C=N/c1cccc(N=C=O)c1C", 20],
  ["CON(/C=C1\\C(=O)C2(C)CCC1C2(C)C)c1ccccc1 (stereo unspecified)", 76],
  ["Cc1cc(C)cc(-c2cc(C)cc(C)c2)c1", 48],
  ["O=[N+]([O-])c1ccc(Cl)c(Cl)c1", 41.3],
  ["O=C=NCCCCCCN=C=O", -55],
  ["SCCS", -41],
  ["CC(C)c1ccccc1 [Isopropylbenzene]", -96],
  ["O=C(Oc1ccccc1)c1ccccc1O [phenyl salicylate]", 42.2],
  ["C1CCCCCCC1", 15],
  ["FC(F)(F)c1ccc(P(c2ccc(C(F)(F)F)cc2)c2ccc(C(F)(F)F)cc2)cc1 [tris[4-(trifluoromethyl)phenyl]phosphine]", 74],
  ["CC(=O)Oc1cccc2ccccc12 [1-naphthyl acetate]", 45],
  ["NNC(=O)c1ccncc1", 171],
  ["Clc1ccc(C(c2ccc(Cl)cc2)C(Cl)(Cl)Cl)cc1 [4,4'-DDT]", 110],
  ["CC1=CC(=O)CC(C)(C)C1", -8],
  ["O=C(O)c1cc([N+](=O)[O-])ccc1Cl", 167],
  ["O=C(O)CCSc1ccc2ccccc2c1", 105],
  ["Cc1ccc([N+](=O)[O-])c(C)c1", 7],
  ["O=C1CC(=O)c2ccccc21", 130],
  ["CCC1(c2ccccc2)C(=O)NC(=O)NC1=O", 176],
  ["CCCCl", -122],
  ["CC(=O)c1cccc([N+](=O)[O-])c1", 81]
]}

* * *

The following molecules are shown together with reported melting point values.

{"columns": ["molecule", "melting point"],
 "data": [
  ["CCC1(C2=CCCCCC2)C(=O)NC(=O)NC1=O [heptabarbital]", "175 °C"],
  ["CC(C)(C)c1cc(C(=S)NC2CCCCC2)cc(C(C)(C)C)c1O [3,5-Di-tert-butyl-N-cyclohexyl-4-hydroxy-thiobenzamide]", "228 °C"],
  ["OCc1ccnc(Br)c1", "61 °C"],
  ["O=P(Oc1ccccc1)(Oc1ccccc1)Oc1ccccc1 [Triphenyl phosphate]", "50.5 °C"],
  ["CCCCCCCCCCCO", "11 °C"],
  ["C=CC1(C(C)CCC)C(=O)NC(=O)NC1=O (stereo not given)", "90 °C"],
  ["Cc1ccc([N+](=O)[O-])cc1N", "108 °C"],
  ["OCCCCCCCCCCc1ccccc1", "36 °C"],
  ["C[N+](=O)[O-]", "-29 °C"],
  ["CCCCCCCN", "-18 °C"]
]}

* * *

The following compounds are listed with their measured melting point values.
endpointName: melting point (°C)

{"columns": ["compound", "endpointName", "observedResult"],
 "data": [
  ["C[C@]12CCC(O)CC1=CC(=O)[C@@H]1[C@@H]2CC[C@]2(C)C(=O)CC[C@@H]12 (stereo not given in full) [3-hydroxyandrost-5-ene-7,17-dione]", "melting point", 238],
  ["O=C(O)C12CC3CC(CC(C3)C1)C2 [adamantane-1-carboxylic acid]", "melting point", 175],
  ["C=C(C)C=O [methacrolein]", "melting point", -81],
  ["OB(O)c1ccccc1OC(F)(F)F [2-(trifluoromethoxy)benzeneboronic acid]", "melting point", 119],
  ["CCCCP(CCCC)CCCC [tri-n-butylphosphine]", "melting point", -65]
]}
